Assay: qHTS RealTime-Glo MT Cell Viability Assay in HepG2 cells - 24 hour (AID 1224867); note: nearly all actives have a fitted effect of over 50% in size
Conditions: RealTime-Glo luminescence; series mostly up to 76.8 µM
Inconclusive results are not listed. The source made the active and inactive calls. Calls come from the whole dose curve; as a rule, active = well fitted cell-killing curve with a large enough effect in the repeat runs; inconclusive = weak or mixed curves; inactive = flat fitted curve, though single readings scatter.
Possible outcomes: active, inactive

Compound | Assigned class
O=c1[nH]sc2ccccc12 | active
CCC(N)(CO)CO | inactive
Cc1cccc(CN2CCN(C(c3ccccc3)c3ccc(Cl)cc3)CC2)c1 (configuration not stated) | inactive
C1CCCC1 | inactive
CCCCCCCCS(=O)C(C)Cc1ccc2c(c1)OCO2 (configuration not stated) | inactive
Cc1cccc(N(C)C(=S)Oc2ccc3c(c2)C2CCC3C2)c1 (configuration not stated) | inactive
CCC(C)(C)C1CCCCC1OC(C)=O (configuration not stated) | inactive
CCN(CC)CCCC(C)Nc1c2ccc(Cl)cc2nc2ccc(OC)cc12 (configuration not stated) | active
CCOC(=O)O[C@H](C)OC(=O)c1ccc2c(c1)cc(C(=O)NC1CCN(C(C)C)CC1)n2Cc1cc(-c2ccc(Cl)s2)on1 | active
O=C(OCC1CO1)C1CCCCC1C(=O)OCC1CO1 (configuration not stated) | inactive
Cc1cc(O)c(Cl)c(C)c1Cl | inactive
CCCCCCCCn1sc(Cl)c(Cl)c1=O | active
OCCN(CCO)c1nc(N2CCCCC2)c2nc(N(CCO)CCO)nc(N3CCCCC3)c2n1 | inactive
O=C(Oc1cccc2cccnc12)c1ccccc1 | inactive
COC(=O)C1=C(C)NC(C)=C(C(=O)OCCc2ccc(N3CCN(C(c4ccccc4)c4ccccc4)CC3)cc2)C1c1cccc([N+](=O)[O-])c1 (configuration not stated) | inactive
O=C(O)c1c(Cl)cccc1Cl | inactive
CCCCCCCCCCCCCCCCCC[N+](C)(C)Cc1ccccc1 | active
Cc1cc(O)c(C(C)(C)C)cc1C(C)(C)C | active
CCC(Cl)C(Cl)C(Cl)CC(Cl)C(Cl)C(C)Cl (configuration not stated) | inactive
NC(=O)NS(=O)(=O)c1ccc(N)cc1 | inactive
Cc1cc2c(cc1C(F)(F)F)N(C(=O)Nc1ccc(Oc3cccnc3C)nc1)CC2 | inactive
Clc1ccc2cc3ccccc3cc2c1 | inactive

---

Assay: A CellTox Green Cytotoxicity Assay to monitor cytotoxicity in HEK293 cells - 24 hour (AID 1224875); note: nearly all actives have a fitted effect of over 45% in size
Conditions: CellTox Green fluorescence; series mostly up to 76.8 µM
Results filed as inconclusive are left out. Activity calls are given as the source filed them. The call rests on the fitted dose curve; in most records, active means well fitted activation curve with a large enough effect in the repeat runs; inconclusive means weak or mixed curves; inactive means flat fitted curve, though single readings scatter.
Possible outcomes: Yes (active), No (inactive)

Molecule | Assigned class
O=C1CCCCCN1SSN1CCCCCC1=O | No
Clc1ccc2nsnc2c1NC1=NCCN1 | No
CCCC/C=C/CCCCO | No
CCCCC(CC)COC(=O)c1ccccc1C(=O)O (stereo not drawn) | No
Nc1cc(C(F)(F)F)ccc1S | No
O=C(Nc1cccc(Cl)c1)OCC#CCCl | No
CCCCCCCCNC(C)C(O)c1ccc(SC(C)C)cc1 (stereo not drawn) | Yes
C=C(C)C(=O)OCC(O)COc1ccc(C(C)(C)c2ccc(OCC(O)COC(=O)C(=C)C)cc2)cc1 (stereo not drawn) | No
CCOC(=O)/C=C(C)/C=C/C=C(C)/C=C/c1c(C)cc(OC)c(C)c1C | No
Cc1cccc(N(C)C(=S)Oc2ccc3c(c2)C2CCC3C2)c1 (stereo not drawn) | No
N#CSc1ccc(N)c([N+](=O)[O-])c1 | No
c1cc(C(c2ccc(OCC3CO3)cc2)c2ccc(OCC3CO3)cc2)ccc1OCC1CO1 (stereo not drawn) | No
O=C1CCCc2c1cc1ccc3cccc4ccc2c1c34 | No
N=C1C=CC(=C(c2ccc(N)cc2)c2ccc(N)cc2)C=C1 | No
CCCCc1oc2ccc(NS(C)(=O)=O)cc2c1C(=O)c1ccc(OCCCN(CCCC)CCCC)cc1 | Yes
CCCCN1C(=O)[C@@H]([C@H](O)C2CCCCC2)NC(=O)C12CCN(Cc1ccc(Oc3ccc(C(=O)O)cc3)cc1)CC2 | No
O=[N+]([O-])c1cc([N+](=O)[O-])c2ccc(S(=O)(=O)O)cc2c1O | No
O=C1C=CC(=O)N1c1ccc(Cc2ccc(N3C(=O)C=CC3=O)cc2)cc1 | Yes
Cc1nc(-c2ccc3c(c2)CCN(CCC2CCC(NC(=O)/C=C/c4ccc(F)cc4)CC2)CC3)no1 (stereo not drawn) | No
CCN(CC)CCCC(C)Nc1c2ccc(Cl)cc2nc2ccc(OC)cc12 (stereo not drawn) | Yes
CCC(N)(CO)CO | No
OC1(c2ccc(Cl)c(C(F)(F)F)c2)CCN(CCCC(c2ccc(F)cc2)c2ccc(F)cc2)CC1 | Yes
CCN(CC)CCNC(=O)c1c(C)[nH]c(/C=C2\C(=O)Nc3ccc(F)cc32)c1C | Yes

---

Experiment: qHTS assay to identify small molecule agonists of the NFkB signaling pathway - cell viability counter screen (AID 1159515); note: nearly all actives have a fitted effect of over 55% in size; note: potency is the fitted concentration of half-maximal effect
Details: NFkB-bla ME-180 viability, CellTiter-Glo luminescence, 5 h; series mostly up to 61 µM
Results filed as inconclusive are left out. Activity calls are given as the source filed them. Calls come from the whole dose curve.
Readout type: Potency

Compound | Readout type | Reported value
Oc1ccc(Cl)cc1Sc1cc(Cl)ccc1O | Potency | inactive
C=CC(=O)OCC(CO)(COCC(COC(=O)C=C)(COC(=O)C=C)COC(=O)C=C)COC(=O)C=C | Potency | 48.4 µM (active)
CCCCCCCC/C=C/CCCCCCCC1=NCCN1CCO | Potency | 49 µM (active)
O=CC=C(c1ccccc1)c1ccccc1 | Potency | inactive
C=C(C)C(=O)OCC(O)COc1ccc(C(C)(C)c2ccc(OCC(O)COC(=O)C(=C)C)cc2)cc1 (stereo not given) | Potency | inactive
C[C@H](CCC(=O)O)[C@H]1CC[C@H]2[C@@H]3CC[C@@H]4C[C@H](O)CC[C@]4(C)[C@H]3CC[C@]12C | Potency | 49 µM (active)
CCC(Cl)C(Cl)C(Cl)CC(Cl)C(Cl)C(C)Cl (stereo not given) | Potency | inactive
CCCCN(CCCC)c1ccc(C(=O)c2ccccc2C(=O)O)c(O)c1 | Potency | inactive
CC(C)c1ccc2c(c1)CC[C@H]1[C@](C)(CN)CCC[C@]21C | Potency | 19.5 µM (active)
Clc1ccccc1C(c1ccccc1)(c1ccccc1)n1ccnc1 | Potency | inactive

---

Experiment: qHTS RealTime-Glo MT Cell Viability Assay in HepG2 cells - 40 hour (AID 1224870); note: nearly all actives have a fitted effect of over 50% in size
Settings: RealTime-Glo luminescence; series mostly up to 76.8 µM
Results filed as inconclusive are left out. Active and inactive are the calls of the source. The call rests on the fitted dose curve; in most records, active means well fitted cell-killing curve with a large enough effect in the repeat runs; inconclusive means weak or mixed curves, or effect the other way; inactive means flat fitted curve, though single readings scatter.
Possible outcomes: 1 (active), 0 (inactive)

Smiles input | Assigned class
CCCC(=O)OC[C@@H](OC(=O)CCC)[C@@H](OC(=O)CCC)[C@H](Cn1c2nc(=O)[nH]c(=O)c-2nc2cc(C)c(C)cc21)OC(=O)CCC | 0
CCCC(c1cc(C(C)(C)C)c(O)cc1C)c1cc(C(C)(C)C)c(O)cc1C | 1
O=C1CCCc2c1cc1ccc3cccc4ccc2c1c34 | 0
CC[C@@]1(O)C(=O)OCc2c1cc1n(c2=O)Cc2cc3c(CN(C)C)c(O)ccc3nc2-1 | 1
Cc1cc2c(cc1C(F)(F)F)N(C(=O)Nc1ccc(Oc3cccnc3C)nc1)CC2 | 0

---

Experiment: qHTS assay for small molecule activators of the heat shock response signaling pathway - cell viability counter screen (AID 743209); note: nearly all actives have a fitted effect of over 50% in size
Conditions: HSE-bla HeLa viability, CellTiter-Glo luminescence, 5 h; series mostly up to 62.6 µM
Results filed as inconclusive are left out. Calls of active or inactive are those of the source. Calls come from the whole dose curve; as a rule, active = well fitted cell-killing curve with a large enough effect in the repeat runs; inconclusive = weak or mixed curves, or effect the other way; inactive = no such curve, though single readings can be large or run the other way.
Possible outcomes: Yes for active, No for inactive

Molecule | Assigned class
CCC(C)Nc1ccc(NC(C)CC)cc1 (stereo not drawn) | Yes
Cc1cc(=O)oc2cc(N(C)C)ccc12 | No
O=c1c(-c2ccccc2)c1-c1ccccc1 | No
CC(=O)OCC(C)OC(C)=O (stereo not drawn) | No
Oc1c(Cl)cc(Cl)c2cccnc12 | No
CC(C)(C)CC(C)(C)c1ccc(OCCOCC[N+](C)(C)Cc2ccccc2)cc1 | Yes
N=C1N=C(N)c2cc3ccccc3cc21 | Yes
Oc1ccc(Cl)cc1Sc1cc(Cl)ccc1O | Yes
O=C(O)c1cc(O)c2c(c1)C(=O)c1cccc(O)c1C2=O | No
O=c1[nH]sc2ccccc12 | Yes
Clc1ccc2n[nH]nc2c1 | No
CCCCCCCCCCCCCC[P+](CCCC)(CCCC)CCCC (tested in a mixture with another compound) | Yes
CCCC(=O)OC[C@@H](OC(=O)CCC)[C@@H](OC(=O)CCC)[C@H](Cn1c2nc(=O)[nH]c(=O)c-2nc2cc(C)c(C)cc21)OC(=O)CCC | No

---

Test: qHTS assay to identify small molecule antagonists of the estrogen receptor alpha (ER-alpha) signaling pathway using the BG1 cell line (AID 743080);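 note: BG1 cells stimulated with 17beta-estradiol alongside compound; nearly all actives have a fitted effect of over 25% in size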
Conditions: BG1Luc4E2 ERE-luciferase antagonist mode, luminescence; series mostly up to 70.3 µM
Source text: National Center for Advancing Translational Sciences [NCATS] NIH Chemical Genomics Center [NCGC] U.S. Environmental Protection Agency [EPA] National Institutes of Environmental Health Sciences [NIEHS] National Toxicology Program [NTP] U.S. Food and Drug Administration [FDA] Estrogen receptor (ER), a nuclear hormone receptor, plays an important role in development, metabolic homeostasis and reproduction. […]
Inconclusive results are not listed. Active and inactive are the calls of the source. The call rests on the fitted dose curve.
Possible outcomes: active, inactive

Smiles input | Assigned class
CN(C)c1ccc(C2(c3ccc(N(C)C)cc3)OC(=O)c3cc(N(C)C)ccc32)cc1 | inactive
CC1(C)CCC(C)(C)c2cc(C(=O)Nc3ccc(C(=O)O)cc3)ccc21 | active
CCCCCCCC[N+](CCCCCCCC)(CCCCCCCC)CCCCCCCC | active
Cc1cccc(S(=O)(=O)O)c1C | inactive
CC(C)C(C)(C)C(C)(C)C(C)(C)S | inactive
O=C(Nc1cccc([N+](=O)[O-])c1)c1cc2ccccc2cc1O | active

Taken from PubChem BioAssay (Tox21).
